system: HL60; assay: CellTiter-Blue cell viability assay, HL60; format: cell-based, human; details: Homo sapiens, HL-60; 48 h; mean of triplicates
reported-metric: IC50 (nM)

- CC1=N/C(=C\c2ccc(C)o2)C(=O)N1c1ccc(CC(=O)NCc2ccccc2)cc1: 443

* * *

system: HT29; assay: CellTiter-Blue cell viability assay, HT29; type: cell-based, human; settings: 48 h; 50% cell viability vs untreated; mean of triplicates
reported-metric: IC50 (µM)

- COc1ccc(/C=C2\N=C(C)N(c3ccc(CC(=O)NCc4ccccc4)cc3)C2=O)cc1 [KIM-161, reference compound]: 1.84
- CC1=N/C(=C\c2ccc(C)o2)C(=O)N1c1ccc(CC(=O)NCc2ccccc2)cc1: 1.34
